TGT: Recombinant human glycogen synthase kinase 3 beta (Homo sapiens, UniProt P49841)
Sequence (P49841 whole entry): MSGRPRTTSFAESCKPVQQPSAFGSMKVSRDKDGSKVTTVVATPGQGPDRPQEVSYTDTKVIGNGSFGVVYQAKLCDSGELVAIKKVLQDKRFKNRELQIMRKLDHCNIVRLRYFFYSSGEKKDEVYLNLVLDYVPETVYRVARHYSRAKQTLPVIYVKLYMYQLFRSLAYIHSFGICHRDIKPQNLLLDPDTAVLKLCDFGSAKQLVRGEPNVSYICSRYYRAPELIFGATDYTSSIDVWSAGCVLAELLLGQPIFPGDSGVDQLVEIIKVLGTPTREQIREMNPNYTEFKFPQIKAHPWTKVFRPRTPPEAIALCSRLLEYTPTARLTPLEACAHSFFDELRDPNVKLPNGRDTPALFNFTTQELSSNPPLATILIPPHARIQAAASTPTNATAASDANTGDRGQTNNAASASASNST
ASSAY DETAILS: GSK-3 beta inhibition assay (33P-ATP, GS-2 peptide)
Type: biochemical
RECORDED CONDITIONS: 0.5 h; compound at 25 μM; percentage of the enzyme activity (remaining); read-out: % Act. GSK-3 beta
Recorded remaining activity at 25 µM for the following molecules
MEASURED PROPERTY: remaining activity at 25 µM (%)

> print(dat)
                    structure.smiles.string  value.measured
1  COCOC(=O)c1ccc(O)c(C/C=C(\C)CC/C=C(\C)CC/C=C(\C)CCC=C(C)C)c1            9.18
2  CC(C)=CCC/C(C)=C/CC/C(C)=C/Cc1cc(C=O)ccc1O            9.26
3  C/C(=C\CC/C(C)=C/CC/C(C)=C/Cc1cc(C(=O)O)ccc1O)C/C=C/C(C)(C)O            52.9
4  CCNC(=O)c1ccc(O)c(C/C=C(\C)CC/C=C(\C)CC/C=C(\C)CCC=C(C)C)c1            32.8

Where do the numbers come from? From patent US20110092591A1.
